assayedSystem: T1, Spy_(24-130) (UniProt P77754 47-153)
T1 construct: Spy chaperone, residues 24-130; source: E. coli BL21 (DE3), purified (Ni-NTA, cation exchange, SEC); not shown: His6, N-terminal, cleaved; SUMO, N-terminal, cleaved
T1 sequence (looked up): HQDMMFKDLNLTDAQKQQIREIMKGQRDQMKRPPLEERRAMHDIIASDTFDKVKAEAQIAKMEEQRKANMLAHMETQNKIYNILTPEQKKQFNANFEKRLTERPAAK
method: BLI; Octet RED96; client biotinylated and loaded on streptavidin sensors; Spy or Spy variant in solution at 0.25, 0.5, 1, 1.5 and 2 μM; 40 mM HEPES, 150 mM NaCl, pH 7.5; Kd calculated as koff/kon
particulars: both partners purified
assayEndpoint: Kd

>>> observedvalue("Im7 H40W L53A I54A (natural protein, biotin (EZ-link NHS-biotin, 1:1 molar ratio of biotin to protein), Im7 (colicin E7 immunity protein) with H40W L53A I54A; Spy was made with an N-terminal His6-SUMO tag that was cleaved; also called Im7AAW; partially folded client; source: purified by a similar procedure to Spy) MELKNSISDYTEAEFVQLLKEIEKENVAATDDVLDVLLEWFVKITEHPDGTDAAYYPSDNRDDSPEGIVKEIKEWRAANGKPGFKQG")
"1.46 µM"
